Assignment: determine reported Ratio Ki for the given compounds.
- Organism: Homo sapiens
- test: Selectivity ratio of Ki for human recombinant CB1 receptor to KI for human recombinant CB2 receptor
Lab note: write the figure by itself, no unit.

Ratio Ki recorded for this compound, CCCC1COc2cccc3c(=O)c(C(=O)NC45CC6CC(CC(C6)C4)C5)cn1c23 (racemic) , is 92

Ratio Ki recorded for this compound, CCC1COc2cccc3c(=O)c(C(=O)NC4C5CC6CC(C5)CC4C6)cn1c23 (racemic) , is 30

Ratio Ki recorded for this compound, CC1Oc2cccc3c(=O)c(C(=O)NC45CC6CC(CC(C6)C4)C5)cn(c23)C1c1ccccc1 (racemic) , is 7.33

Ratio Ki recorded for this compound, O=C(NC1CCCCC1)c1cn2c3c(cccc3c1=O)OCC2c1ccccc1 (racemic) , is 166

----------
assay_readout: pKi
Please report pKi as the negative decimal logarithm of the molar concentration, giving only the number.

Given the compound Cc1cc2c3c(c1)c(=O)c(C(=O)NC1CCCCC1)cn3C(c1ccccc1)CO2 (racemic) and test system Cannabinoid receptor 1 (Rattus norvegicus, UniProt P20272), the measured pKi is 5.80

Given the compound CC[C@H]1COc2cccc3c(=O)c(C(=O)NC45CC6CC(CC(C6)C4)C5)cn1c23 and test system Cannabinoid receptor 1 (Rattus norvegicus, UniProt P20272), the measured pKi is 6.19

Given the compound CCC1COc2cccc3c(=O)c(C(=O)NC4C5CC6CC(C5)CC4C6)cn1c23 (racemic) and test system Cannabinoid receptor 1 (Rattus norvegicus, UniProt P20272), the measured pKi is 6.37

Given the compound Cc1ccc(C2COc3cccc4c(=O)c(C(=O)NC5CCCCC5)cn2c34)cc1 (racemic) and test system Cannabinoid receptor 1 (Rattus norvegicus, UniProt P20272), the measured pKi is 5.34

Given the compound CCC1COc2c(F)ccc3c(=O)c(C(=O)NC45CC6CC(CC(C6)C4)C5)cn1c23 (racemic) and test system Cannabinoid receptor 1 (Rattus norvegicus, UniProt P20272), the measured pKi is 6.34

Given the compound CC12CC3CC(C)(C1)CC(NC(=O)c1cn4c5c(cccc5c1=O)OCC4c1ccccc1)(C3)C2 (racemic) and test system Cannabinoid receptor 1 (Rattus norvegicus, UniProt P20272), the measured pKi is 6.26

Given the compound O=C(NC1CCCCCC1)c1cn2c3c(cccc3c1=O)OCC2C1CC1 (racemic) and test system Cannabinoid receptor 1 (Rattus norvegicus, UniProt P20272), the measured pKi is 7.00

Given the compound CC(C)[C@H]1COc2cccc3c(=O)c(C(=O)NC45CC6CC(CC(C6)C4)C5)cn1c23 and test system Cannabinoid receptor 1 (Rattus norvegicus, UniProt P20272), the measured pKi is 6.06

Given the compound CC(C)[C@@H]1COc2cccc3c(=O)c(C(=O)NC45CC6CC(CC(C6)C4)C5)cn1c23 and test system Cannabinoid receptor 1 (Rattus norvegicus, UniProt P20272), the measured pKi is 7.02

Given the compound CCCC1COc2cccc3c(=O)c(C(=O)NC45CC6CC(CC(C6)C4)C5)cn1c23 (racemic) and test system Cannabinoid receptor 1 (Rattus norvegicus, UniProt P20272), the measured pKi is 6.62

Given the compound CCC1COc2cccc3c(=O)c(C(=O)NC4CCCCCC4)cn1c23 (racemic) and test system Cannabinoid receptor 1 (Rattus norvegicus, UniProt P20272), the measured pKi is 6.30

Given the compound CCC1COc2c(F)c(F)cc3c(=O)c(C(=O)NC45CC6CC(CC(C6)C4)C5)cn1c23 (racemic) and test system Cannabinoid receptor 1 (Rattus norvegicus, UniProt P20272), the measured pKi is 5.74

Given the compound O=C(NC1CCCCC1)c1cn2c3c(cccc3c1=O)OCC2c1ccccc1 (racemic) and test system Cannabinoid receptor 1 (Rattus norvegicus, UniProt P20272), the measured pKi is 5.94

Given the compound CCCC1COc2cccc3c(=O)c(C(=O)NC4CCCCC4)cn1c23 (racemic) and test system Cannabinoid receptor 1 (Rattus norvegicus, UniProt P20272), the measured pKi is 7.87

Given the compound CC[C@H]1COc2cccc3c(=O)c(C(=O)NC4CCCCCC4)cn1c23 and test system Cannabinoid receptor 1 (Rattus norvegicus, UniProt P20272), the measured pKi is 6.04

----------
- assayed_system: Cannabinoid receptor 2 (Homo sapiens)
- Sequence (P34972 whole entry): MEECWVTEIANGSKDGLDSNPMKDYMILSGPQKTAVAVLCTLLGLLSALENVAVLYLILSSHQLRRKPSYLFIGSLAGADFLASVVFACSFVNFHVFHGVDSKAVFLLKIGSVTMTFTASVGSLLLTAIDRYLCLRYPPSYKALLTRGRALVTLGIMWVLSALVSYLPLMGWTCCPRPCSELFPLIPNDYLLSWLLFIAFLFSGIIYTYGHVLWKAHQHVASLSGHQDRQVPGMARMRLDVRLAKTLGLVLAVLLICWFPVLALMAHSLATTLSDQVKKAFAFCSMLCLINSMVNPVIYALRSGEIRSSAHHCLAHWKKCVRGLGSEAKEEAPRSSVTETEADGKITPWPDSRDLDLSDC
- test: Agonist activity at human recombinant CB2 receptor expressed in CHO cell membranes assessed as inhibition of forskolin-induced cAMP accumulation
pIC50: −log10 of the molar value.
Rule: pIC50 of 7 or more gives met; anything lower gives not met.

Form field: pIC50 at least 7? Entry: O=C(NC1CCCC1)c1cn2c3c(cccc3c1=O)OCC2c1ccccc1 (racemic) not met

Form field: pIC50 at least 7? Entry: O=C(NC1CCCCCC1)c1cn2c3c(cccc3c1=O)OCC2c1ccccc1 (racemic) met

Form field: pIC50 at least 7? Entry: CCC1COc2cccc3c(=O)c(C(=O)Nc4nccs4)cn1c23 (racemic) not met

Form field: pIC50 at least 7? Entry: C[C@H]1COc2cccc3c(=O)c(C(=O)NC4CCCCC4)cn1c23 not met

Form field: pIC50 at least 7? Entry: CCC1COc2cccc3c(=O)c(C(=O)N(C(C)C)C(C)C)cn1c23 (racemic) not met

Form field: pIC50 at least 7? Entry: Cc1ccc(C2COc3cccc4c(=O)c(C(=O)NC5CCCCC5)cn2c34)cc1 (racemic) not met

Form field: pIC50 at least 7? Entry: CCC1COc2c(F)ccc3c(=O)c(C(=O)NC45CC6CC(CC(C6)C4)C5)cn1c23 (racemic) met

Form field: pIC50 at least 7? Entry: CCC1COc2cccc3c(=O)c(C(=O)Nc4ccncc4)cn1c23 (racemic) not met

Form field: pIC50 at least 7? Entry: CC(C)C1COc2cccc3c(=O)c(C(=O)NC45CC6CC(CC(C6)C4)C5)cn1c23 (racemic) met

Form field: pIC50 at least 7? Entry: Cc1ccc(C2COc3cccc4c(=O)c(C(=O)NC56CC7CC(CC(C7)C5)C6)cn2c34)cc1 (racemic) not met

Form field: pIC50 at least 7? Entry: CCC1COc2cccc3c(=O)c(C(=O)NC45CC6CC(CC(C6)C4)C5)cn1c23 (racemic) met

Form field: pIC50 at least 7? Entry: CCC1COc2cccc3c(=O)c(C(=O)NC4CCCCCC4)cn1c23 (racemic) met

Form field: pIC50 at least 7? Entry: CC1COc2cccc3c(=O)c(C(=O)NC45CC6CC(CC(C6)C4)C5)cn1c23 (racemic) not met

Form field: pIC50 at least 7? Entry: CCC1COc2c(N3CCCC3)ccc3c(=O)c(C(=O)NC45CC6CC(CC(C6)C4)C5)cn1c23 (racemic) met

Form field: pIC50 at least 7? Entry: CCC1COc2c(OC)ccc3c(=O)c(C(=O)NC45CC6CC(CC(C6)C4)C5)cn1c23 (racemic) met

----------
Ki values recorded for UniProtKB P20272
# number only, unit nM dropped from output

Ki recorded for this compound, O=C(NC1CCCCCC1)c1cn2c3c(cccc3c1=O)OCC2c1ccccc1 (racemic) , is 372

Ki recorded for this compound, CC[C@@H]1COc2cccc3c(=O)c(C(=O)NC45CC6CC(CC(C6)C4)C5)cn1c23 , is 242

Ki recorded for this compound, CC1(C)COc2cccc3c(=O)c(C(=O)NC45CC6CC(CC(C6)C4)C5)cn1c23 , is 276

Ki recorded for this compound, CCCC1COc2cccc3c(=O)c(C(=O)NC45CC6CC(C)(CC(C)(C6)C4)C5)cn1c23 (racemic) , is 476

Ki recorded for this compound, CCC1COc2c(OC)ccc3c(=O)c(C(=O)NC45CC6CC(CC(C6)C4)C5)cn1c23 (racemic) , is 589

Ki recorded for this compound, O=C(NC1CCCC1)c1cn2c3c(cccc3c1=O)OCC2c1ccccc1 (racemic) , is 150

Ki recorded for this compound, CC(C)C1COc2cccc3c(=O)c(C(=O)NC45CC6CC(CC(C6)C4)C5)cn1c23 (racemic) , is 366

----------
- Species on record: Homo sapiens
- test: Selectivity ratio of Ki for human recombinant CB1 receptor to KI for human recombinant CB2 receptor
Assignment: determine reported Ratio Ki for the given molecules.

Ratio Ki recorded for this molecule, CC[C@H]1COc2cccc3c(=O)c(C(=O)NC4CCCCCC4)cn1c23 , is 4.5

Ratio Ki recorded for this molecule, CC1COc2cccc3c(=O)c(C(=O)NC4CCCCC4)cn1c23 (racemic) , is 36

Ratio Ki recorded for this molecule, CC(C)C1COc2cccc3c(=O)c(C(=O)NC45CC6CC(CC(C6)C4)C5)cn1c23 (racemic) , is 86

Ratio Ki recorded for this molecule, CCCC1COc2cccc3c(=O)c(C(=O)NC4CCCCC4)cn1c23 (racemic) , is 32

Ratio Ki recorded for this molecule, CCCC1COc2ccc(C)c3c(=O)c(C(=O)NC4CCCCC4)cn1c23 (racemic) , is 20
